tested on: J774 cells; experiment: ACAT inhibitory action (anti-foaming action) in J774 cells; conditions: Mus musculus, J774, 18 h, read-out: Enzyme (J774) IC50(µM)
MEASUREMENT_TYPE: IC50 (µM)

| COMPOUND | MEASUREMENT_TYPE | UNIT_TAG | ENDPOINT_RESULT |
| --- | --- | --- | --- |
| CC(C)c1cccc(C(C)C)c1NC(=O)C(C)(C)CCCOc1ccc2c(c1)C=C(c1nccn1C)C(CCc1ccc(F)cc1)O2 (stereo not shown) [Control 1, reference compound] | IC50 | µM | 0.56 |
| CC(C)c1cccc(C(C)C)c1NC(=O)CN1CCN(CCSc2nc3cccc(C(F)(F)F)c3o2)CC1 | IC50 | µM | 0.019 |
| COc1cc(C(C)C)c(NC(=O)CN2CCN(CCSc3nc4ccccc4o3)CC2)c(C(C)C)c1 | IC50 | µM | 0.1 |
| CCOCCOc1cc(C(C)C)c(NC(=O)CN2CCN(CCSc3nc4ccccc4o3)CC2)c(C(C)C)c1 | IC50 | µM | 0.014 |

----------
test system: ACAT (blood vessel wall); experiment: ACAT inhibitory action, microsome enzyme from blood vessel wall (stethartery); type: biochemical, rabbits; settings: ratio small intestine / blood vessel wall
Rule: IC50 (B) /IC50 (A) below 5 gives true (1). Equal to or above 5 gives false (0).

| COMPOUND | TARGET_OR_TEST_SYSTEM | CAT |
| --- | --- | --- |
| CCCCCCCN(CCCCCSc1nc(-c2ccccc2)c(-c2ccccc2)[nH]1)c1nc2ccccc2o1 [Control 4, reference compound] | ACAT (blood vessel wall) | true (1) |
| CCOCCOc1cc(C(C)C)c(NC(=O)CN2CCN(CCSc3nc4ccccc4o3)CC2)c(C(C)C)c1 [Example 78] | ACAT (blood vessel wall) | false (0) |
| COc1cc(C(C)C)c(NC(=O)CN2CCN(CCSc3nc4ccccc4o3)CC2)c(C(C)C)c1 [Example 75] | ACAT (blood vessel wall) | false (0) |
| COC(=O)c1cccc2nc(SCCCN3CCN(CC(=O)Nc4c(C(C)C)cccc4C(C)C)CC3)oc12 [Example 10] | ACAT (blood vessel wall) | true (1) |
| CC(C)c1cccc(C(C)C)c1NC(=O)C(C)(C)CCCOc1ccc2c(c1)C=C(c1nccn1C)C(CCc1ccc(F)cc1)O2 (stereo not shown) [Control 1, reference compound] | ACAT (blood vessel wall) | true (1) |
| COC(=O)c1cccc2oc(SCCN3CCN(CC(=O)Nc4c(C(C)C)cccc4C(C)C)CC3)nc12 [Example 5] | ACAT (blood vessel wall) | true (1) |

----------
test: Disintegration test: solubility in liquid No.1 for disintegration test of the Japanese Pharmacopoeia; assay type: physicochemical; settings: jp disintegration liquid no.1; pH 1.2; liquid No.1, shaken two hours, room temperature one hour, 0.45 µm filter
MEASUREMENT_TYPE: solubility (µg/mL)

| MOLECULE | MEASUREMENT_TYPE | UNIT_TAG | ENDPOINT_RESULT |
| --- | --- | --- | --- |
| CCCC(CCCCC(=O)Nc1c(C(C)C)cccc1C(C)C)Sc1nc2ccccc2o1 (stereo not shown) [Control 5] | solubility | µg/mL | 0.05 |

----------
molecular target: ACAT (small intestine); assay: ACAT inhibitory action, enzyme from small intestine; conditions: B = the small intestine of rabbits fed normal feed; 14C-oleoyl-CoA, 37°C, three minutes
Known IC50 of a selection of molecules
MEASUREMENT_TYPE: IC50 (µM)

| MOLECULE | TARGET_OR_TEST_SYSTEM | MEASUREMENT_TYPE | ENDPOINT_RESULT |
| --- | --- | --- | --- |
| COC(=O)c1cccc2oc(SCCN3CCN(CC(=O)Nc4c(C(C)C)cccc4C(C)C)CC3)nc12 | ACAT (small intestine) | IC50 | 0.13 |
| CCCCCCCN(CCCCCSc1nc(-c2ccccc2)c(-c2ccccc2)[nH]1)c1nc2ccccc2o1 [Control 4, reference compound] | ACAT (small intestine) | IC50 | 0.037 |
| CC(C)c1cccc(C(C)C)c1NC(=O)CN1CCN(CCSc2nc3cccc(C(F)(F)F)c3o2)CC1 | ACAT (small intestine) | IC50 | 0.059 |
| CCCCCCCCCN(CC(C)(C)C)C(=O)N[C@H]1CCCC[C@@H]1OC(=O)CCNC(=O)C1OC(C)(C)OCC1(C)C (stereo partly shown) [Control 3, reference compound] | ACAT (small intestine) | IC50 | 0.056 |

----------
# key: entry, value: pIC50
Biological target: ACAT (blood vessel wall)
Experiment: ACAT inhibitory action, microsome enzyme from blood vessel wall (stethartery)
Details: A = the blood vessel wall; microsome from stethartery of rabbits fed 1% cholesterol feed; 14C-oleoyl-CoA, 37°C, five minutes
Protocol: Microsome was prepared by a conventional method from stethartery of rabbits fed for eight weeks with a 1% cholesterol feed and was suspended in a 0.15M phosphate buffer (pH 7.4) to provide an enzyme solution. […] Radioactivity of the resulting cholesterol ester fraction was measured by a BAS 2000 (manufactured by Fuji Photo Film) and IC50 values were determined from a comparative calculation with the control to which only DMSO was added.
pIC50: −log10 of the molar value.

| COMPOUND | pIC50 |
| --- | --- |
| CCCCCCCCCN(CC(C)(C)C)C(=O)N[C@H]1CCCC[C@@H]1OC(=O)CCNC(=O)C1OC(C)(C)OCC1(C)C (some centres unmarked) [Control 3, reference compound] | 7.47 |
| COC(=O)c1cccc2nc(SCCCN3CCN(CC(=O)Nc4c(C(C)C)cccc4C(C)C)CC3)oc12 | 7.46 |
| CC(C)c1cccc(C(C)C)c1NC(=O)C(C)(C)CCCOc1ccc2c(c1)C=C(c1nccn1C)C(CCc1ccc(F)cc1)O2 (centres unmarked) [Control 1, reference compound] | 6.35 |
| COc1cc(C(C)C)c(NC(=O)CN2CCN(CCSc3nc4ccccc4o3)CC2)c(C(C)C)c1 | 7.42 |
| CCOCCOc1cc(C(C)C)c(NC(=O)CN2CCN(CCSc3nc4ccccc4o3)CC2)c(C(C)C)c1 | 7.40 |
| CCCCCCCN(CCCCCSc1nc(-c2ccccc2)c(-c2ccccc2)[nH]1)c1nc2ccccc2o1 [Control 4, reference compound] | 7.59 |
| CC(C)c1cccc(C(C)C)c1NC(=O)CN1CCN(CCSc2nc3cccc(C(F)(F)F)c3o2)CC1 | 7.92 |
| COC(=O)c1cccc2oc(SCCN3CCN(CC(=O)Nc4c(C(C)C)cccc4C(C)C)CC3)nc12 | 7.25 |

----------
target: ACAT (small intestine); experiment: ACAT inhibitory action, enzyme from small intestine; settings: B = the small intestine of rabbits fed normal feed; 14C-oleoyl-CoA, 37°C, three minutes
pIC50: −log10 of the molar value.

| COMPOUND | pIC50 |
| --- | --- |
| COc1cc(C(C)C)c(NC(=O)CN2CCN(CCSc3nc4ccccc4o3)CC2)c(C(C)C)c1 [Example 75] | 6.68 |
| CCOCCOc1cc(C(C)C)c(NC(=O)CN2CCN(CCSc3nc4ccccc4o3)CC2)c(C(C)C)c1 [Example 78] | 6.68 |
| CC(C)c1cccc(C(C)C)c1NC(=O)C(C)(C)CCCOc1ccc2c(c1)C=C(c1nccn1C)C(CCc1ccc(F)cc1)O2 (stereo not shown) [Control 1, reference compound] | 6.06 |
| COC(=O)c1cccc2nc(SCCCN3CCN(CC(=O)Nc4c(C(C)C)cccc4C(C)C)CC3)oc12 [Example 10] | 7.41 |
